Each item that follows carries a reported log10 of CC50 at 48 h.
- experiment description: Cytotoxicity against human HEp-2 cells assessed as reduction in cell viability after 48 hrs by MTS assay
- Type: cell-based
Please note: log10 values; quantity CC50 at 48 h; unit µM.

O=C(COc1cccc2ccc(N3CCCC3)nc12)NCc1cccc(Cl)c1 1.86

q: Entry `COc1cccc(CNC(=O)COc2cccc3ccc(N4CCCC4)nc23)c1` : reported log10 of CC50 at 48 h = ?
a: 1.87

q: Try the molecule `O=C(COc1cccc2ccc(N3CCCCC3)nc12)NCc1ccccc1`
a: 3.24

q: Ok, now `O=C(COc1cccc2ccc(N3CCCC3)nc12)NCc1ccc(C(F)(F)F)cc1`
a: 2.51

q: Consider next the molecule `O=C(COc1cccc2ccc(Cl)nc12)NCc1ccccc1` in the same way.
a: 2.72

q: Try this molecule next: `CCOC(=O)COc1cccc2ccc(N3CCCC3)nc12`
a: 2.92

###

The entries below are paired with their reported selectivity ratio.
- experiment description: Selectivity index, ratio of CC50 for cytotoxicity against human HEp-2 cells to IC50 for antiviral activity against RSV Long expressing mGFP infected in HEp-2 cells
- Format: toxicity, cell-based
- test conditions: read-out: Ratio CC50/IC50
Output: the number by itself.

O=C(COc1cccc2ccc(N3CCCC3)nc12)NCc1ccccc1 9.68
CCOc1ccccc1CNC(=O)COc1cccc2ccc(N3CCCC3)nc12 2.48

# input for lookup
q: Any idea what selectivity ratio was measured for `c1cc(OCCCCN2CCOCC2)c2nc(N3CCCC3)ccc2c1` ?
a: 59.6

###

Recorded measurements of CC50 at 48 h, one per entry
- experiment description: Cytotoxicity against human HEp-2 cells assessed as reduction in cell viability after 48 hrs by MTS assay
- Type: cell-based
Number in µM, nothing else.

These recorded examples may help you get a feel for the data.
O=C(COc1cccc2ccc(N3CCCC3)nc12)Nc1ccccc1 304
O=C(COc1cccc2ccc(N3CCCC3)nc12)NCc1ccccc1 540
O=C(COc1cccc2ccc(N3CCCC3)nc12)NCc1ccco1 249

q: // query CC50 at 48 h value for entry `O=C(COc1cccc2ccc(N3CCCC3)nc12)NCc1ccccc1Br`
a: 312

q: Similarly, `O=C(COc1cccc2ccc(N3CCCC3)nc12)NCc1ccc(F)cc1` ?
a: 2130

q: Now the same for `CCOc1ccccc1CNC(=O)COc1cccc2ccc(N3CCCC3)nc12`
a: 113

q: Follow-up item: `O=C(COc1cccc2ccc(N3CCCC3)nc12)NCc1ccc(Cl)cc1`
a: 245

q: How about this compound: `O=C(COc1cccc2ccc(N3CCCC3)nc12)NCC1CC1`
a: 580

q: Also need `CS(=O)(=O)c1ccc(CNC(=O)COc2cccc3ccc(N4CCCC4)nc23)cc1` , thanks.
a: 1360

// data source = ChEMBL document CHEMBL4732200
